Target: human Y5 receptor (hNPY-5) (Homo sapiens, UniProt Q15761)
Construct: expressed in transfected cells; host or cells: mouse fibroblast LM(tk-) cells, e.g. L-hY5-7 (ATCC CRL-11995)
Assay: Radioligand binding to membranes, cloned human Y5 receptor
Conditions: cloned human NPY Y5 receptor, radioligand competition binding; Tables 1-3; read-out: Ki, nM hNPY-5
Mark 1 only when Ki stays strictly below 3 nM. Values equal to the cut-off are -1.

Task item: Determine whether this compound shows Ki lower than 3 nM (ties excluded): CCS(=O)(=O)N[C@H]1CC[C@H](CNc2nc3c(s2)CCCc2ccc(F)cc2-3)CC1 [Example 52]
Reply: 1

Task item: What do you have for CN(C)S(=O)(=O)NC[C@H]1CC[C@H](Nc2nc3c(s2)CCCc2ccc(F)cc2-3)CC1 [Example 1] ?
Reply: 1

Task item: Please answer likewise for CCN(C=O)[C@H]1CC[C@H](CNc2nc3c(s2)CCOc2ccccc2-3)CC1 [Example 87]
Reply: -1

Task item: // next record CC(C)(C)OC(=O)NC[C@H]1CC[C@H](Nc2nc3c(s2)CCSc2ccccc2-3)CC1 [Example 100]
Reply: -1

Task item: Next record, please: O=S(=O)(CC(F)(F)F)NCCCCCNc1nc2c(s1)CCCc1ccc(F)cc1-2 [Example 20]
Reply: -1

Task item: Quick one: COc1ccc(S(=O)(=O)NC[C@H]2CC[C@H](Nc3nc4c(s3)CCCc3ccc(F)cc3-4)CC2)cc1 [Example 27]
Reply: -1

Task item: Moving on to the next compound: CCC(=O)NC[C@H]1CC[C@H](Nc2nc3c(s2)CCCc2ccc(F)cc2-3)CC1 [Example 75]
Reply: -1

----------
Target: human Y5 receptor (hNPY-5) (Homo sapiens, UniProt Q15761)
Construct: expressed in transfected cells; host or cells: mouse fibroblast LM(tk-) cells, e.g. L-hY5-7 (ATCC CRL-11995)
Sequence (Q15761 1-445): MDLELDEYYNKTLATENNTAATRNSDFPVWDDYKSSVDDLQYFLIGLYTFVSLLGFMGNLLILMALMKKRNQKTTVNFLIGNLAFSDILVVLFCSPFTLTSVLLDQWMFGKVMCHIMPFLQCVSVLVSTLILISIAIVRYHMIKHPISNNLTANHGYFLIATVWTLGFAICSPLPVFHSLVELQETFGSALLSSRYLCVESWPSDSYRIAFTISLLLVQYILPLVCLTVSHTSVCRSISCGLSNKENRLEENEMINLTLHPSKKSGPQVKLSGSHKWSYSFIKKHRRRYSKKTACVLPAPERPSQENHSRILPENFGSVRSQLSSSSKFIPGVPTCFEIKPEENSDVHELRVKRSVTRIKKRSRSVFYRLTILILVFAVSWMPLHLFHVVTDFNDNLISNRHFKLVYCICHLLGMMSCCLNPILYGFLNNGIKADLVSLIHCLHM
Assay: Radioligand binding to membranes, cloned human Y5 receptor
Conditions: cloned human NPY Y5 receptor, radioligand competition binding; Tables 1-3; read-out: Ki, nM hNPY-5
Experimental: Binding of the compounds of the present invention to human Y1, Y2, Y4, and Y5 receptors was evaluated using stably transfected 293 or LM(tk-) cells as described above. […] Membranes were harvested from COS-7 cells 48 hours after transient transfection. […] Protein concentration was measured by the Bradford method (Bradford, 1976) using Bio-Rad Reagent, with bovine serum albumin as a standard. […]
Threshold-based label: Ki under 5 nM gives met, Ki not under 5 nM gives not met.

Task item: Would you kindly verify if Ki of CC(=O)NC[C@H]1CC[C@H](Nc2nc3c(s2)CCCc2ccc(F)cc2-3)CC1 is strictly less than 5 nM?
Reply: not met

Task item: Same thing, different compound: Cc1noc(C)c1S(=O)(=O)NCCCCCNc1nc2c(s1)CCCc1ccc(F)cc1-2
Reply: met

Task item: # repeat for O=S(=O)(Cc1ccccc1)NCCCCCNc1nc2c(s1)CCCc1ccc(F)cc1-2
Reply: met

Task item: Request: O=S(=O)(NC[C@H]1CC[C@H](Nc2nc3c(s2)CCCc2ccc(F)cc2-3)CC1)c1c(F)cccc1F
Reply: met

Task item: Consider next the compound CS(=O)(=O)NC[C@H]1CC[C@H](Nc2nc(-c3ccccc3O)cs2)CC1 in the same way.
Reply: not met

----------
Target: human Y5 receptor (hNPY-5) (Homo sapiens)
Construct: expressed in transfected cells; host or cells: mouse fibroblast LM(tk-) cells, e.g. L-hY5-7 (ATCC CRL-11995)
Assay: Radioligand binding to membranes, cloned human Y5 receptor
Conditions: cloned human NPY Y5 receptor, radioligand competition binding; Tables 1-3; read-out: Ki, nM hNPY-5
Method: Binding of the compounds of the present invention to human Y1, Y2, Y4, and Y5 receptors was evaluated using stably transfected 293 or LM(tk-) cells as described above. […] Membranes were harvested from COS-7 cells 48 hours after transient transfection. […] Protein concentration was measured by the Bradford method (Bradford, 1976) using Bio-Rad Reagent, with bovine serum albumin as a standard. […]
Output: class label from Ki. Mapping: one = under 6 nM, two = from 6 nM up to 20 nM, three = 20 nM and over

Task item: Which category does the recorded Ki put COCCOC(=O)NC[C@H]1CC[C@H](Nc2nc3c(s2)CCCc2ccc(F)cc2-3)CC1 in?
Reply: two

Task item: Now the molecule CN(C)S(=O)(=O)NC[C@H]1CC[C@H](CNc2nc3c(s2)CCSc2ccc(F)cc2-3)CC1
Reply: one

Task item: What do we get for CS(=O)(=O)NCc1ccc(Nc2nc3c(s2)CCCc2ccc(F)cc2-3)cc1 ?
Reply: one

Task item: Please do the same for O=S(=O)(NCCCCCNc1nc2c(s1)CCCc1ccc(F)cc1-2)c1cccs1 as well.
Reply: one

Task item: Follow-up entry: O=S(=O)(NC[C@H]1CC[C@H](Nc2nc3c(s2)CCCc2ccc(F)cc2-3)CC1)c1cccnc1
Reply: one

Task item: Query O=S(=O)(CC(F)(F)F)N[C@H]1CC[C@H](Nc2nc3c(s2)CCCc2ccc(F)cc2-3)CC1 next
Reply: two

Task item: Continue with COC[C@@H]1CCCN1S(=O)(=O)c1ccc(Nc2nc3c(s2)CCCc2ccc(F)cc2-3)cc1
Reply: two

Task item: How about CCOC(=O)NC[C@H]1CC[C@H](Nc2nc(-c3cccc(OC)c3)cs2)CC1 ?
Reply: three

Task item: Next up: COc1ccc2c(c1)CCCc1sc(N[C@H]3CC[C@H](CNS(=O)(=O)C(C)C)CC3)nc1-2
Reply: two

Task item: CC(C)N(C=O)[C@H]1CC[C@H](CNc2nc(-c3ccccc3)cs2)CC1 ?
Reply: three

Task item: Would you mind doing COc1ccccc1-c1csc(N[C@H]2CC[C@H](CN(C=O)C(C)C)CC2)n1 as well?
Reply: three

Task item: Okay, and CC(C)S(=O)(=O)NCCCCCNc1nc2c(s1)CCCc1ccc(F)cc1-2 ?
Reply: three

Task item: Same read-out for O=S(=O)(NC[C@H]1CC[C@H](Nc2nc3c(s2)CCCc2ccc(F)cc2-3)CC1)c1ccccc1F ?
Reply: two

Task item: Now the molecule CCN(CC)S(=O)(=O)NCCCCNc1nc2c(s1)CCSc1ccccc1-2
Reply: one

Task item: Please do the same for COCCN(C=O)C[C@H]1CC[C@H](Nc2nc(-c3ccccc3OC)cs2)CC1 as well.
Reply: three

----------
Counter-ions that a name gives are not always drawn.
MEASURED_METRIC: melting point

Task item: Which measured melting point value corresponds to O=S(=O)(N[C@H]1CC[C@H](Nc2nc3c(s2)CCCc2ccc(F)cc2-3)CC1)c1cccnc1 (as salt: salt) ?
Reply: 165 to 167 °C

Task item: Please give the result for CCCN(C=O)[C@H]1CC[C@H](CNc2nc3c(s2)CCOc2ccccc2-3)CC1 (as salt: HCl) too.
Reply: 195 to 197 °C

Task item: Ok, now COc1ccc2c(c1)CCCc1sc(N[C@H]3CC[C@H](CNS(=O)(=O)C(C)C)CC3)nc1-2 (as salt: salt)
Reply: 87 to 89 °C

Task item: Repeat for the following compound: CCOC(=O)N[C@H]1CC[C@H](CNc2nc3c(s2)CCCc2ccc(F)cc2-3)CC1 (as salt: hydrochloride)
Reply: 94 to 97 °C

Task item: Also O=S(=O)(NCCCCNc1nc2c(s1)CCCc1ccc(F)cc1-2)c1cccnc1 (as salt: salt) , if possible.
Reply: 101 to 103 °C

Task item: And then CS(=O)(=O)NC[C@H]1CC[C@H](Nc2nc3c(s2)CCOc2ccccc2-3)CC1 , what is it?
Reply: 67 to 69 °C

Task item: And what about the compound COc1ccc(C)cc1S(=O)(=O)N[C@H]1CC[C@H](CNc2nc3c(s2)CCOc2ccccc2-3)CC1 ?
Reply: 220 to 224 °C

----------
Biological target: human Y5 receptor (hNPY-5) (Homo sapiens, UniProt Q15761)
Construct: expressed in transfected cells; host or cells: mouse fibroblast LM(tk-) cells, e.g. L-hY5-7 (ATCC CRL-11995)
Experiment: Radioligand binding to membranes, cloned human Y5 receptor
Conditions: cloned human NPY Y5 receptor, radioligand competition binding; Tables 1-3; read-out: Ki, nM hNPY-5
Structures can show the parent of a compound that is named as a salt.
MEASURED_METRIC: Ki

Task item: Returns the measured Ki for the input compound. Input: CCN(CC)S(=O)(=O)NCCCCCNc1nc2c(s1)CCSc1ccccc1-2
Reply: 3.7 nM

Task item: Lookup CS(=O)(=O)N[C@H]1CC[C@H](Nc2nc3c(s2)CCCc2ccc(F)cc2-3)CC1
Reply: 34 nM

Task item: How about CS(=O)(=O)NCCCCC(=O)Nc1nc2c(s1)CCCc1ccc(F)cc1-2 ?
Reply: 65 nM

Task item: Let us now turn to CCCN(C=O)C[C@H]1CC[C@H](Nc2nc3c(s2)CCOc2ccccc2-3)CC1
Reply: 150 nM

Task item: Query COCCN(C=O)[C@H]1CC[C@H](CNc2nc3c(s2)CCOc2ccccc2-3)CC1 next
Reply: 68 nM

Task item: Try the compound O=S(=O)(N[C@H]1CC[C@H](Nc2nc3c(s2)CCCc2ccc(F)cc2-3)CC1)c1cccs1
Reply: 7.4 nM

Task item: How about O=S(=O)(NCCCCCNc1nc2c(s1)CCCc1ccc(F)cc1-2)c1ccccc1F ?
Reply: 4.5 nM

Task item: Query CS(=O)(=O)N[C@H]1CC[C@H](CNc2nc3c(s2)CCCc2ccc(F)cc2-3)CC1 next
Reply: 4.4 nM

Task item: Can you handle COc1ccc2c(c1)-c1nc(NC[C@H]3CC[C@H](NS(C)(=O)=O)CC3)sc1CCO2 next?
Reply: 31 nM

Task item: One more compound: CC(C)S(=O)(=O)NCCOCCNc1nc2c(s1)CCCc1ccc(F)cc1-2
Reply: 4.1 nM

Task item: What would you report for CCOC(=O)N[C@H]1CC[C@H](CNc2nc3c(s2)CCCc2ccc(F)cc2-3)CC1 [Example 68, hydrochloride] ?
Reply: 4 nM

Task item: Moving on to CC(C)N(C=O)C[C@H]1CC[C@H](Nc2nc3c(s2)CCCc2ccc(F)cc2-3)CC1
Reply: 12 nM

Task item: # iterate: CS(=O)(=O)NCC1CCC(Nc2nc3c(s2)COc2ccccc2-3)CC1 (centres unmarked)
Reply: 21 nM

Task item: Next compound: CCN(CC)S(=O)(=O)NCCCCNc1nc2c(s1)CCCc1ccc(F)cc1-2
Reply: 2.9 nM

Task item: Then what about the compound CCS(=O)(=O)N[C@H]1CC[C@H](CNc2nc3c(s2)CCOc2ccc(OC)cc2-3)CC1 ?
Reply: 12.2 nM

Task item: Consider next the compound COc1ccc(S(=O)(=O)NCCCCCNc2nc3c(s2)CCCc2ccc(F)cc2-3)cc1 in the same way.
Reply: 7.1 nM

Task item: Cool, now CCOC(=O)NC[C@H]1CC[C@H](Nc2nc(-c3ccccc3OC)cs2)CC1
Reply: 912 nM
